Ref: the supplement of paper PMC9732359

- method-description: protein stability index of a GFP-peptide fusion (yeast GPS) (PSI 1-4); higher = more stable; sorted into four equal gates, so the index is relative within each strain
- setup-conditions: pdr5∆
property-name: protein stability index
Note: the reply should be a number with no unit written.

[
  {
    "sequence-text": "LSASWDKTLRLWDVATG [ASC1]",
    "protein stability index": 3.22
  },
  {
    "sequence-text": "DEKLKTEKLKNDKSEVL [SRB8]",
    "protein stability index": 3.74
  },
  {
    "sequence-text": "DTFRAGAFDQLKQNAIR [SRP54]",
    "protein stability index": 2.99
  },
  {
    "sequence-text": "WKYEDVVAKLEDKRKVR [RPL16B]",
    "protein stability index": 2.32
  },
  {
    "sequence-text": "SKMGAPWCVKPEYLAMY [ITC1]",
    "protein stability index": 3.23
  },
  {
    "sequence-text": "FKYVSVRYEEKRELKQL [BRR2]",
    "protein stability index": 2.93
  },
  {
    "sequence-text": "NDLQSETKTKKEKIKGL [SMC4]",
    "protein stability index": 3.25
  },
  {
    "sequence-text": "TDLMSIVQELLDKNLIK [RPC34]",
    "protein stability index": 2.74
  },
  {
    "sequence-text": "MMENYQNISPVYSVDPL [PRP8]",
    "protein stability index": 1.88
  },
  {
    "sequence-text": "ALLTKRLYPHWDHPVIA [CSN12]",
    "protein stability index": 1.91
  }
]

Input: Would you mind telling me what protein stability index value was observed for DRVIFRVPIRSEYKVAF [PRP8] ?
Output: 2.71

Input: Would you mind telling me what protein stability index value was observed for EINSVGNPGLPQYQYQR [ITC1] ?
Output: 2.59

Input: Would you mind telling me what protein stability index value was observed for FNFFEPIKEAKIKHGSV [YMR129W/POM152] ?
Output: 2.89

====

- method-description: protein stability index of a GFP-peptide fusion (yeast GPS) (PSI 1-4); higher = more stable; sorted into four equal gates, so the index is relative within each strain
- setup-conditions: san1∆
Would you please tag the item Condition met when its protein stability index is 3 or above, and Condition not met when it is below?

[
  {
    "sequence-text": "KSHSTVSSSSRHHRKTE [ISW2]",
    "assigned-label": "Condition not met"
  },
  {
    "sequence-text": "TDVLEISKQRTFAVILF [YMR129W/POM152]",
    "assigned-label": "Condition not met"
  },
  {
    "sequence-text": "SPMINSTSSGKVSYAVK [SNM1]",
    "assigned-label": "Condition not met"
  },
  {
    "sequence-text": "ELDSKTRKILEILNECH [MED4]",
    "assigned-label": "Condition met"
  },
  {
    "sequence-text": "DMLLHKYYIVSSSKSMI [SRB8]",
    "assigned-label": "Condition not met"
  },
  {
    "sequence-text": "IRGILMASGSTTFTKVA [PRP8]",
    "assigned-label": "Condition not met"
  }
]

Input: State whether the measured protein stability index reaches 3, counting equality as reaching it, for DPSRELNVIIDQLAVSP [YCS4]
Output: Condition not met

Input: State whether the measured protein stability index reaches 3, counting equality as reaching it, for NNTEKNDVTNKNINIGK [SIR4]
Output: Condition not met

Input: State whether the measured protein stability index reaches 3, counting equality as reaching it, for AGENAPSIVFIDEIDAI [RPT2]
Output: Condition not met

Input: State whether the measured protein stability index reaches 3, counting equality as reaching it, for FNAGSNPPSYQSSEDVI [RPB7]
Output: Condition not met

Input: State whether the measured protein stability index reaches 3, counting equality as reaching it, for TNSTYNPASATDNMSGR [YJL039C/NUP192]
Output: Condition not met

Input: State whether the measured protein stability index reaches 3, counting equality as reaching it, for EKKPAAKKTSTSTDGKK [HTB1]
Output: Condition not met

Input: State whether the measured protein stability index reaches 3, counting equality as reaching it, for ILIESRIHRLARYYRTV [RPS13]
Output: Condition not met

Input: State whether the measured protein stability index reaches 3, counting equality as reaching it, for QHDKMVDKIFEKVNNNA [SWI1]
Output: Condition not met

Input: State whether the measured protein stability index reaches 3, counting equality as reaching it, for DGRSFDQFRDVEITFGK [RRP45]
Output: Condition met

Input: State whether the measured protein stability index reaches 3, counting equality as reaching it, for ATEVTPQEPKHIQEEEE [RPC19]
Output: Condition met

Input: State whether the measured protein stability index reaches 3, counting equality as reaching it, for DLLRSQLTSLEKDCSLR [YIL149C/MLP2]
Output: Condition not met

Input: State whether the measured protein stability index reaches 3, counting equality as reaching it, for KYCEIMGDNSQLDFTEF [SNF2]
Output: Condition not met

Input: State whether the measured protein stability index reaches 3, counting equality as reaching it, for VQSGQIYINKSVPTNSA [RET1]
Output: Condition met

Input: State whether the measured protein stability index reaches 3, counting equality as reaching it, for GALIHKAGLMTGGISGD [SMC1]
Output: Condition not met

Input: State whether the measured protein stability index reaches 3, counting equality as reaching it, for SFKKIIKFLLTFIDKER [YCS4]
Output: Condition not met

Input: State whether the measured protein stability index reaches 3, counting equality as reaching it, for NTLLQQQNYSKVLLPSI [SWI1]
Output: Condition not met

Input: State whether the measured protein stability index reaches 3, counting equality as reaching it, for QAIPKFQMNCYAKEDAF [RPN2]
Output: Condition not met

Input: State whether the measured protein stability index reaches 3, counting equality as reaching it, for SKMGAPWCVKPEYLAMY [ITC1]
Output: Condition met
